# Test system: activation of NF-κB by activating anti-human TNFR1 antibody
# assay_info: HEK-293 NF-κB SEAP reporter gene assay, activating TNF-R1 antibody counterscreen
# Assay type: cell-based
# condition_notes: HEK293, HEK-293 reporter cells, antibody 300 ng/ml

molecule | IC50
Cc1ccc(C)c(Cn2c(C(O)c3ccncc3)nc3ccc(-c4cnn(C)c4)cc32)c1 (stereo not shown) | > 30 µM

###

# target_of_assay: TNFα (Homo sapiens, UniProt P01375)
# Sequence (P01375 77-233 limits assumed): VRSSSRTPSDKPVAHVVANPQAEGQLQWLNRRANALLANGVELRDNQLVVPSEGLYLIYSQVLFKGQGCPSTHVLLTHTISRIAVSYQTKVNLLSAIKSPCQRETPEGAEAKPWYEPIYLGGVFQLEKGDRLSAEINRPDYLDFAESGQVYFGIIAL

compound | Kd [nM]
Cc1ccc(C)c(Cn2c(C(O)c3ccncc3)nc3ccccc32)c1 (stereo not shown) | 35

###

# target_of_assay: TNFα (Homo sapiens)
# assay_info: Fluorescence polarization assay, competition with the compound of formula (4) for TNFα
# condition_notes: TNFα 50 nM, compound of formula (4) 10 nM, 5% DMSO; read-out: IC50 (inhibition of binding of the compound of formula (4) to TNFα)
readout_name: IC50 (µM)

compound | readout_name | result_value
Cc1ccc(C)c(Cn2c(C(O)c3ccncc3)nc3ccccc32)c1 (stereo not drawn) | IC50 | 0.167
Cc1ccc(C)c(Cn2c(C(O)c3ccncc3)nc3ccc(-c4cnn(C)c4)cc32)c1 (stereo not drawn) | IC50 | 0.102
O=C1CCCN1c1cccc(OCc2nc3ccc(-c4ccc(=O)[nH]c4)cc3n2Cc2ccccc2OC(F)F)c1 | IC50 | 0.02

Taken from patent US10705094B2.
